system: MS2 coat protein; test: apparent KD of MS2 coat protein, switch ON state; designed switch direction (-1 OFF switch, 1 ON switch): -1; higher = weaker reporter binding; settings: FMN input: 0 or 200 uM; Eterna round: R93 (includes R88 designs)
Below, each entry is listed alongside its reported apparent KD of MS2 coat protein.
Provide only the numeric value, understood in µM.

The cases that follow already have their apparent KD of MS2 coat protein on record.
* GGAUGUCAAGGAUAUACAUGAGGAUCACCCAUGUGAGAGAAAAAAGUGAGAAAGAAAAGUAGAAGGUGGUGUCG [salish99-ex3-87] | 0.0385
* GAAAAACAUGAGGAUCACCCAUGUUAGGAUAUGCUAUGGAAAAAUAAAAUAAAACAUAGCAGAAGGGACAAAAG [Mat - Exclusion 1 - Eli mod - D29] | 0.0247
* AAGAGUAGAGGAUAUAUAUGAAAAGAGUCGAAAGACUCAAAACAUGAGGAUCACCCAUGUAGAAGGCUACUCAA [Hyphema Seclusion mod] | 0.0187
* AAAAAGUGAGGAUAUUCGGAUAGGAAAACGAAAACCUAUCCGAAGAAGGCACAUGAGGAUCACCCAUGUGAAAG [Mat - Exaclusion 4 - Eli mod - D42] | 0.028
* AACAAACAUGAGGAUCACCCAUGUGAGGAUAUCGGAUGUACAGCGCAAUUAGAAUUAACGAGAAGGCACACUUA [Ex1_Neo] | 0.0227

Consider now this further sequence.
Lookup: Notebook: pull reported apparent KD of MS2 coat protein for MS2 coat protein, entry AACAGGUCAGGAUAUGUGGAAAAAAUAAAAAAAAUAAAAACACAGAAGGGACAUGAGGAUCACCCAUGUAUAUA [May 21]
Found: 0.0894

* * *

test system: MS2 coat protein; test: apparent KD of MS2 coat protein; designed switch direction (-1 OFF switch, 1 ON switch): -1; higher = weaker reporter binding; details: input ligand: microRNA oligo, concentration not stated
Below, each entry is listed alongside its reported apparent KD of MS2 coat protein.
Provide only the numeric value, understood in nM.

The cases that follow already have their apparent KD of MS2 coat protein on record.
- GCAGCAUAGUCCAAAUAGGACAUACAUGAGGAUCACCCAUGUCAGGAUAUGGUCUGGAUUACAGGCCAGAAGGGACGUAGCUGC [Eli exng3 - 004] (Eterna round: R96, puzzle: Exclusion NG 3): 20.9
- UUAUUAUAUGUAGGAUAUGCAUAUUAUUAUUGUGCAGAAGGACAUGAGGAUCACCCAUGUAUAUUAUUAUUAUAUAUUAUAUAU [Title] (Eterna round: R96, puzzle: Exclusion NG 1): 26.5
- UAUAUAUAGUAAGGAUAUGUAUAUAUGUUAUAAACAGAAGGUACUGACAUGAGGAUCACCCAUGUUUUAGUGUGGGCAUGUAGA [JMF's solution 59] (Eterna round: R96, puzzle: Exclusion NG 1): 53.8
- AACUGUACAGGAUAUACAUGAGGAUCACCCAUGUGAGAAUUAAGUGGAGAACCACAAAGUAGAAGGGUACAGGA [Mat - Exclusion 3 - JL mod - D17] (Eterna round: R96, puzzle: Exclusion 3): 38.4

Consider now this further sequence.
Lookup: Notebook: pull reported apparent KD of MS2 coat protein for MS2 coat protein, entry GUAAAACAUGUAGGAUAUGCGUGGCGAAGCUAUGCAGAAGGACAUGAGGAUCACCCAUGUUAAAGCGUCUGCGUACAGAUGCAA [Mat - Exclusion NG 1 - Mod of JL - D94] (Eterna round: R96, puzzle: Exclusion NG 1)
Found: 19.8

Data credit: the supplement of paper PMC9170038
